Give % activation at 10 μM, P2Y2 for every item shown.
- study-system: human P2Y2R (Homo sapiens, UniProt P41231)
- Construct: expressed in transfected cells; host or cells: 1321N1 astrocytoma cells
- Sequence (P41231 whole entry): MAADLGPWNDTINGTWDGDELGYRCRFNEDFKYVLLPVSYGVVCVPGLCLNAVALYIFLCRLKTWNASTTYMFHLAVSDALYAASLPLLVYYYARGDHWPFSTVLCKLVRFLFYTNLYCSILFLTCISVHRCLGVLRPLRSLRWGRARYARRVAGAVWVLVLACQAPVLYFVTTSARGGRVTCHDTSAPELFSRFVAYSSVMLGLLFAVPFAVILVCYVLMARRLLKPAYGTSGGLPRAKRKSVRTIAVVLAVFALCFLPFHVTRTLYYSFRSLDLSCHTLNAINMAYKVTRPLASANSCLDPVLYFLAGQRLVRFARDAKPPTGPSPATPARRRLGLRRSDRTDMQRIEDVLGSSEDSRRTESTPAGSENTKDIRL
- assay-info: Calcium mobilization in 1321N1 astrocytoma cells expressing human P2Y2R
- Format: cell-based
The figure you give is taken to be in %; do not add the unit.

*Q* Notebook entry, human P2Y2R (Homo sapiens, UniProt P41231) assay: % activation at 10 μM, P2Y2 of Nc1ncnc2c1ncn2COCCOP(=S)(S)OP(=O)(O)C(Cl)(Cl)P(=O)(O)O (stereo not shown) [compound 109] = ?
*A* 21

*Q* Notebook entry, human P2Y2R (Homo sapiens, UniProt P41231) assay: % activation at 10 μM, P2Y2 of Nc1ncnc2c1ncn2COCCOP(=S)(S)OP(=O)(O)OP(=O)(O)O (stereo not shown) [compound 107] = ?
*A* 39

*Q* Notebook entry, human P2Y2R (Homo sapiens, UniProt P41231) assay: % activation at 10 μM, P2Y2 of Nc1ncnc2c1ncn2COCCOP(=S)(S)OP(=O)(O)O (stereo not shown) [compound 106] = ?
*A* 32

*Q* Notebook entry, human P2Y2R (Homo sapiens, UniProt P41231) assay: % activation at 10 μM, P2Y2 of Nc1ncnc2c1ncn2COCCOP(=S)(S)OP(=O)(O)CP(=O)(O)O (stereo not shown) [compound 108] = ?
*A* 44

These data points were gathered from patent US20220220135A1.
